Values were extracted from the supplement of paper PMC10567573.

The entries below are paired with their reported protein stability index.
B1: CDS2 (parent)
chain: LIVVTQSHLVIHNLFEGMIWFIVP

# Variants of: B1
# measurement-description: protein stability index of a GFP-peptide fusion (GPS, HEK-293T) (PSI 1-6); higher = more stable;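 also: lentivirally expressed fusions sorted by FACS into six bins by GFP to DsRed ratio, PSI derived from sequencing read proportions per bin multiplied by bin number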
# conditions-used: c terminus: a fixed tail appended
assay-metric: protein stability index

[
  {
    "residues": "QIVVTQSHLVIHNLFEGMIWFIVP [L1Q]",
    "reported": 4.19
  },
  {
    "residues": "LIVVTQSHLVIHNLFEGMPWFIVP [I19P]",
    "reported": 3.75
  },
  {
    "residues": "LIVVTQIHLVIHNLFEGMIWFIVP [S7I]",
    "reported": 2.54
  },
  {
    "residues": "LIVVTQSHLVIHNLLEGMIWFIVP [F15L]",
    "reported": 2.41
  },
  {
    "residues": "LIVVTQSHLVIHNFFEGMIWFIVP [L14F]",
    "reported": 2.92
  },
  {
    "residues": "LIVVTQSHLVMHNLFEGMIWFIVP [I11M]",
    "reported": 2.84
  },
  {
    "residues": "LIVVTISHLVIHNLFEGMIWFIVP [Q6I]",
    "reported": 2.71
  },
  {
    "residues": "LIVVTQSHLVIHNLFPGMIWFIVP [E16P]",
    "reported": 2.48
  },
  {
    "residues": "LIVVTASHLVIHNLFEGMIWFIVP [Q6A]",
    "reported": 2.85
  },
  {
    "residues": "SIVVTQSHLVIHNLFEGMIWFIVP [L1S]",
    "reported": 3.83
  },
  {
    "residues": "LIVVGQSHLVIHNLFEGMIWFIVP [T5G]",
    "reported": 4.08
  },
  {
    "residues": "LIVVTQSHLVIHNQFEGMIWFIVP [L14Q]",
    "reported": 2.25
  },
  {
    "residues": "LIVVTQSHLVIHVLFEGMIWFIVP [N13V]",
    "reported": 3.45
  },
  {
    "residues": "LIVVTQSTLVIHNLFEGMIWFIVP [H8T]",
    "reported": 2.91
  },
  {
    "residues": "LIVVTQSHLVIGNLFEGMIWFIVP [H12G]",
    "reported": 3.39
  },
  {
    "residues": "LIVVTQSHLVIHNLFEGMIWFDVP [I22D]",
    "reported": 4.26
  },
  {
    "residues": "LIVWTQSHLVIHNLFEGMIWFIVP [V4W]",
    "reported": 1.83
  },
  {
    "residues": "LIVVTQSHLVSHNLFEGMIWFIVP [I11S]",
    "reported": 3.42
  },
  {
    "residues": "LIVVTQSHLVIHKLFEGMIWFIVP [N13K]",
    "reported": 2.81
  },
  {
    "residues": "LIVVTQSHLVIHNLFEGMIWKIVP [F21K]",
    "reported": 4.85
  },
  {
    "residues": "LIVVTQSHLVIHNLFEGMIWFSVP [I22S]",
    "reported": 3.28
  },
  {
    "residues": "LIVVTQSDLVIHNLFEGMIWFIVP [H8D]",
    "reported": 4.35
  },
  {
    "residues": "LIVVTQSHLVIHNLFEGGIWFIVP [M18G]",
    "reported": 2.85
  },
  {
    "residues": "LIVVTQSHLVIHNLFEGMIWFISP [V23S]",
    "reported": 1.85
  },
  {
    "residues": "LIVVTQSHLVIHNLSEGMIWFIVP [F15S]",
    "reported": 3.64
  },
  {
    "residues": "LIVVTQSHLVIHNYFEGMIWFIVP [L14Y]",
    "reported": 3.06
  },
  {
    "residues": "LIVVTQSHLVIHCLFEGMIWFIVP [N13C]",
    "reported": 3.03
  },
  {
    "residues": "LIVVTQSHLVIHNLFFGMIWFIVP [E16F]",
    "reported": 2.52
  },
  {
    "residues": "LIVVTQSHLAIHNLFEGMIWFIVP [V10A]",
    "reported": 3.19
  },
  {
    "residues": "LIVVTQSHLVIHNLFDGMIWFIVP [E16D]",
    "reported": 3.44
  },
  {
    "residues": "LIVVTQNHLVIHNLFEGMIWFIVP [S7N]",
    "reported": 2.81
  },
  {
    "residues": "LIVVTQSHLVIHNLFEEMIWFIVP [G17E]",
    "reported": 2.55
  },
  {
    "residues": "LIVGTQSHLVIHNLFEGMIWFIVP [V4G]",
    "reported": 3.49
  },
  {
    "residues": "LIEVTQSHLVIHNLFEGMIWFIVP [V3E]",
    "reported": 2.45
  },
  {
    "residues": "LIVVTQSHLVIHRLFEGMIWFIVP [N13R]",
    "reported": 2.08
  },
  {
    "residues": "LIVVTQSHLVIHNLFEGMIWFIVV [P24V]",
    "reported": 2.65
  },
  {
    "residues": "LIVRTQSHLVIHNLFEGMIWFIVP [V4R]",
    "reported": 3.46
  },
  {
    "residues": "LIVVTQSHLVIHNLFEGMIRFIVP [W20R]",
    "reported": 2.57
  },
  {
    "residues": "LIVVTQSHIVIHNLFEGMIWFIVP [L9I]",
    "reported": 1.84
  },
  {
    "residues": "LIVVTQSHLDIHNLFEGMIWFIVP [V10D]",
    "reported": 1.79
  },
  {
    "residues": "LIVVTQSHLVIHNLFENMIWFIVP [G17N]",
    "reported": 2.29
  },
  {
    "residues": "LIVVTQSHLVIHNWFEGMIWFIVP [L14W]",
    "reported": 2.72
  },
  {
    "residues": "LIVVTVSHLVIHNLFEGMIWFIVP [Q6V]",
    "reported": 2.76
  },
  {
    "residues": "LIVVTQSHLIIHNLFEGMIWFIVP [V10I]",
    "reported": 4.56
  },
  {
    "residues": "LIVVTPSHLVIHNLFEGMIWFIVP [Q6P]",
    "reported": 3.21
  },
  {
    "residues": "LIVVTQSHLVIHNLFEGMISFIVP [W20S]",
    "reported": 3.64
  },
  {
    "residues": "LIVVTQSHLVIHNLFEGMIWFNVP [I22N]",
    "reported": 1.8
  },
  {
    "residues": "LRVVTQSHLVIHNLFEGMIWFIVP [I2R]",
    "reported": 3.79
  },
  {
    "residues": "LIVVTQSHLVIHNLFWGMIWFIVP [E16W]",
    "reported": 3.98
  },
  {
    "residues": "LIVVTQSHLVIHNLFEGMIWFWVP [I22W]",
    "reported": 3.42
  },
  {
    "residues": "LIVVTQSHLVIHNLFEIMIWFIVP [G17I]",
    "reported": 1.85
  },
  {
    "residues": "LIVVTQSHLVIHNLFEGMIEFIVP [W20E]",
    "reported": 2.38
  },
  {
    "residues": "LIVVTQVHLVIHNLFEGMIWFIVP [S7V]",
    "reported": 3.79
  },
  {
    "residues": "LIVVTQSHNVIHNLFEGMIWFIVP [L9N]",
    "reported": 2.36
  },
  {
    "residues": "LIVVYQSHLVIHNLFEGMIWFIVP [T5Y]",
    "reported": 2.99
  },
  {
    "residues": "LIVVTQSHLVIHSLFEGMIWFIVP [N13S]",
    "reported": 3.02
  },
  {
    "residues": "LIVVTQSHLVIMNLFEGMIWFIVP [H12M]",
    "reported": 2.67
  },
  {
    "residues": "LIVVTQSHFVIHNLFEGMIWFIVP [L9F]",
    "reported": 1.48
  },
  {
    "residues": "LIPVTQSHLVIHNLFEGMIWFIVP [V3P]",
    "reported": 3.31
  },
  {
    "residues": "LIVVHQSHLVIHNLFEGMIWFIVP [T5H]",
    "reported": 3.62
  },
  {
    "residues": "LIVVTQSHLVIHTLFEGMIWFIVP [N13T]",
    "reported": 1.61
  },
  {
    "residues": "LIVVTQTHLVIHNLFEGMIWFIVP [S7T]",
    "reported": 4.59
  },
  {
    "residues": "LIVVTQSHLVIHNLFEGMIIFIVP [W20I]",
    "reported": 3.21
  },
  {
    "residues": "LIVVTQSHDVIHNLFEGMIWFIVP [L9D]",
    "reported": 2.62
  },
  {
    "residues": "LIVVTQSHLVIHNLFEGMIWRIVP [F21R]",
    "reported": 2.94
  },
  {
    "residues": "LLVVTQSHLVIHNLFEGMIWFIVP [I2L]",
    "reported": 3.84
  },
  {
    "residues": "PIVVTQSHLVIHNLFEGMIWFIVP [L1P]",
    "reported": 3.61
  },
  {
    "residues": "LIVVTQDHLVIHNLFEGMIWFIVP [S7D]",
    "reported": 2.68
  },
  {
    "residues": "LIVVTQSHLVIHNAFEGMIWFIVP [L14A]",
    "reported": 1.86
  },
  {
    "residues": "LIVVTQSHLVIHNLFEAMIWFIVP [G17A]",
    "reported": 3.15
  },
  {
    "residues": "LWVVTQSHLVIHNLFEGMIWFIVP [I2W]",
    "reported": 3.71
  },
  {
    "residues": "LIVVTQSHLVIHNLFEGMIHFIVP [W20H]",
    "reported": 3.23
  },
  {
    "residues": "LIVVTQSHLVIHMLFEGMIWFIVP [N13M]",
    "reported": 4.66
  },
  {
    "residues": "LIVVTQSHLVIHNLFEGMIWFIVS [P24S]",
    "reported": 1.99
  },
  {
    "residues": "LIVVTQSHLVIHNLMEGMIWFIVP [F15M]",
    "reported": 4.48
  },
  {
    "residues": "LIVVTQSHLVGHNLFEGMIWFIVP [I11G]",
    "reported": 2.27
  },
  {
    "residues": "LIVVTQSHLVIHNKFEGMIWFIVP [L14K]",
    "reported": 3.69
  },
  {
    "residues": "LIVTTQSHLVIHNLFEGMIWFIVP [V4T]",
    "reported": 3.04
  },
  {
    "residues": "LIVVTQSHLVIHNLFEGYIWFIVP [M18Y]",
    "reported": 3.67
  },
  {
    "residues": "AIVVTQSHLVIHNLFEGMIWFIVP [L1A]",
    "reported": 3.25
  },
  {
    "residues": "LIVVTQSHLVIHNLFEGMIWFLVP [I22L]",
    "reported": 3.99
  },
  {
    "residues": "LIVVTQSHLVIHNLFERMIWFIVP [G17R]",
    "reported": 3.21
  },
  {
    "residues": "LIVCTQSHLVIHNLFEGMIWFIVP [V4C]",
    "reported": 3.17
  },
  {
    "residues": "LIVVTQSHLVIHNLFEGMIWYIVP [F21Y]",
    "reported": 2.52
  },
  {
    "residues": "LIVVTQSHLVIHNLFEGMIWFIDP [V23D]",
    "reported": 3.03
  },
  {
    "residues": "LIVVTQSHLVIHNLFEGMIWLIVP [F21L]",
    "reported": 3.42
  },
  {
    "residues": "LIVVTQSHLVIHNLFEGMIWTIVP [F21T]",
    "reported": 3.04
  },
  {
    "residues": "LIVVTQSHLVIHNLFMGMIWFIVP [E16M]",
    "reported": 3.76
  },
  {
    "residues": "LIQVTQSHLVIHNLFEGMIWFIVP [V3Q]",
    "reported": 2.14
  },
  {
    "residues": "FIVVTQSHLVIHNLFEGMIWFIVP [L1F]",
    "reported": 3.17
  },
  {
    "residues": "LIVVTQSHLVVHNLFEGMIWFIVP [I11V]",
    "reported": 2.52
  }
]
